Cited source for all entries: patent US4500526A

- method.notes: Mouse blood levels after single intramuscular injection
- Assay type: in vivo, mice
- assay.setup: in vivo, im, 20 mg/kg
# reported concentration at 2 h; entries follow
Quick note: give the figure in ng/mL, leave out the unit.

Solved entries:
compound: C#CCO/N=C(\C(=O)NC1C(=O)N2C(C(=O)[O-])=C(C[n+]3ccc4sc(N)nc4c3)CS[C@H]12)c1csc(N)n1 (stereo partly shown) [If]
result.units: ng/mL
concentration at 2 h: 1200
--
compound: CO/N=C(\C(=O)NC1C(=O)N2C(C(=O)[O-])=C(C[n+]3ccc4sc(NC(=O)OC)nc4c3)CS[C@H]12)c1csc(N)n1 (stereo partly shown) [Is]
result.units: ng/mL
concentration at 2 h: 1100
--
compound: Nc1nc(/C(=N/OCC(=O)O)C(=O)NC2C(=O)N3C(C(=O)[O-])=C(C[n+]4ccc5sc(N)nc5c4)CS[C@H]23)cs1 (stereo partly shown) [Ig]
result.units: ng/mL
concentration at 2 h: 840
--
compound: CO/N=C(\C(=O)NC1C(=O)N2C(C(=O)[O-])=C(C[n+]3ccc4sc(NC(C)=O)nc4c3)CS[C@H]12)c1csc(N)n1 (stereo partly shown) [Ip]
result.units: ng/mL
concentration at 2 h: 1400
--
compound: CO/N=C(\C(=O)NC1C(=O)N2C(C(=O)[O-])=C(C[n+]3ccc4sc(N(C)C)nc4c3)CS[C@H]12)c1csc(N)n1 (stereo partly shown) [Iu]
result.units: ng/mL
concentration at 2 h: 340

Q: # query: concentration at 2 h of entry CO/N=C(\C(=O)NC1C(=O)N2C(C(=O)[O-])=C(C[n+]3ccc4sc(NC(=O)N5CCCC5)nc4c3)CS[C@H]12)c1csc(N)n1 (stereo partly shown) [It]
Result: 890

---

- method.notes: Mouse blood levels after single intramuscular injection
- Assay type: in vivo, mice
- assay.setup: in vivo, im, 20 mg/kg
reported.metric: AUC
Express your answer as a number followed by its unit.

For orientation, consider the following solved cases.
molecule: Nc1nc(/C(=N/OCC(=O)O)C(=O)NC2C(=O)N3C(C(=O)[O-])=C(C[n+]4ccc5sc(N)nc5c4)CS[C@H]23)cs1 (stereo partly shown)
reported.metric: AUC
observed: 15 µg·h/mL

molecule: C=CCO/N=C(\C(=O)NC1C(=O)N2C(C(=O)[O-])=C(C[n+]3ccc4scnc4c3)CSC12)c1csc(N)n1 (stereo not shown)
reported.metric: AUC
observed: 12 µg·h/mL

molecule: CO/N=C(\C(=O)NC1C(=O)N2C(C(=O)[O-])=C(C[n+]3ccc4sc(SC)nc4c3)CSC12)c1csc(N)n1 (stereo not shown)
reported.metric: AUC
observed: 6.8 µg·h/mL

Query molecule follows.
Q: Give the measured AUC of CO/N=C(\C(=O)NC1C(=O)N2C(C(=O)[O-])=C(C[n+]3ccc4sc(C=O)nc4c3)CSC12)c1csc(N)n1 (stereo not shown) .
Result: 11 µg·h/mL

---

Parameter concentration at 0.5 h: see the listing below.
- method.notes: Mouse blood levels after single intramuscular injection
- Assay type: in vivo, mice
- assay.setup: in vivo, im, 20 mg/kg
Express your answer in ng/mL, writing the number without its unit.

compound: CCO/N=C(\C(=O)NC1C(=O)N2C(C(=O)[O-])=C(C[n+]3ccc4scnc4c3)CSC12)c1csc(N)n1 (stereo not drawn)
reported.metric: concentration at 0.5 h
observed: 8400

compound: CO/N=C(\C(=O)NC1C(=O)N2C(C(=O)[O-])=C(C[n+]3ccc4sc(C(=O)O)nc4c3)CS[C@H]12)c1csc(N)n1 (stereo partly drawn)
reported.metric: concentration at 0.5 h
observed: 10000

Q: Param item = CO/N=C(\C(=O)NC1C(=O)N2C(C(=O)[O-])=C(C[n+]3ccc4sc(NC(=O)N5CCCC5)nc4c3)CS[C@H]12)c1csc(N)n1 (stereo partly drawn) ; retrieve measured concentration at 0.5 h.
Result: 11000

Q: Given the compound CO/N=C(\C(=O)NC1C(=O)N2C(C(=O)[O-])=C(C[n+]3ccc4sc(C=O)nc4c3)CSC12)c1csc(N)n1 (stereo not drawn) , what is its reported concentration at 0.5 h?
Result: 8900

Q: Give its concentration at 0.5 h value. Item: CO/N=C(\C(=O)NC1C(=O)N2C(C(=O)[O-])=C(C[n+]3ccc4scnc4c3)CS[C@H]12)c1csc(N)n1 (stereo partly drawn)
Result: 11000

Q: Form field: reported concentration at 0.5 h of C#CCO/N=C(\C(=O)NC1C(=O)N2C(C(=O)[O-])=C(C[n+]3ccc4sc(N)nc4c3)CS[C@H]12)c1csc(N)n1 (stereo partly drawn)
Result: 7300
